- Tested on: SiaT18 (α-2,6-sialyltransferase)
- measurementDescription: In vitro sialyltransferase activity assay with acceptor substrates, product detected by thin layer chromatography
- Type: biochemical, Photobacterium leiognathi JT-SHIZ-119
- Parameters: key: +: A sialylated reaction product was detectable.; −: A sialylated reaction product was not detectable
- protocolConditions: E. coli protein extract, 10 mM CMP-Neu5Ac, 5 to 20 mM acceptor substrate, 16 hours, TLC
quantityKind: Formation of sialylated reaction product, SiaT18

[
  {
    "compound": "OC[C@H]1O[C@@](CO)(O[C@H]2O[C@H](CO)[C@@H](O)[C@H](O)[C@H]2O)[C@@H](O)[C@@H]1O [Sucrose]",
    "targetEntity": "SiaT18 (α-2,6-sialyltransferase)",
    "resultValue": "−"
  },
  {
    "compound": "OC[C@H]1O[C@@H](O[C@H]2[C@H](O)[C@@H](O)C(O)O[C@@H]2CO)[C@H](O)[C@@H](O)[C@H]1O (stereo partly shown) [Lactose]",
    "targetEntity": "SiaT18 (α-2,6-sialyltransferase)",
    "resultValue": "+"
  },
  {
    "compound": "O=C[C@H](O)[C@@H](O)[C@@H](O)[C@H](O)CO [Galactose]",
    "targetEntity": "SiaT18 (α-2,6-sialyltransferase)",
    "resultValue": "+"
  },
  {
    "compound": "CC(=O)N[C@H]1[C@H](O[C@H]2[C@@H](O)[C@@H](CO)O[C@@H](O[C@H]3[C@H](O)[C@@H](O)C(O)O[C@@H]3CO)[C@@H]2O)O[C@H](CO)[C@@H](O)[C@@H]1O[C@@H]1O[C@H](CO)[C@H](O)[C@H](O)[C@H]1O (stereo partly shown) [Lacto-N-tetraose]",
    "targetEntity": "SiaT18 (α-2,6-sialyltransferase)",
    "resultValue": "+"
  }
]
